# test-summary: Waters ACQUITY UPLC BEH C18, 100 × 2.1 mm, 1.7 µm, 40 °C, 0.3 to 0.4 mL/min, estimated dead time 0.63 min; A: water + 0.1% formic acid; B: methanol + 0.1% formic acid; gradient (min/%B) 0/0.5 0.1/0.5 10/80 10.1/99.5 12/99.5
# condition-description: stereoisomer not certain
Label class 1 when LC retention time is at or above 6 min; anything below gets class 0.

[[record]]
compound = "COc1ccc2cc1Oc1ccc(cc1)CC1c3cc(c(OC)cc3CCN1C)Oc1c(OC)c(OC)cc3c1C(C2)N(C)CC3 (stereo not drawn)"
class_assignment = "class 0"

[[record]]
compound = "COc1cc(C(O)C(CO)Oc2c(OC)cc(-c3cc(=O)c4c(O)cc(O)cc4o3)cc2OC)ccc1O (stereo not drawn)"
class_assignment = "class 1"

[[record]]
compound = "CC(C)=CCc1cc(C(O)=CC(=O)c2cc(CC=C(C)C)c(O)cc2O)ccc1O"
class_assignment = "class 1"

[[record]]
compound = "CCC1C2CC3C4N(C)c5ccccc5C45CC(C2C5O)N3C1O (stereo not drawn)"
class_assignment = "class 0"

[[record]]
compound = "CC1=C(CCC(C)COC2OC(CO)C(O)C(O)C2O)OC2CC3C4CC=C5CC(O)CC(OC6OCC(O)C(O)C6OC6OC(C)C(O)C(O)C6O)C5(C)C4CCC3(C)C12 (stereo not drawn)"
class_assignment = "class 0"

[[record]]
compound = "O=c1c(O)c(-c2ccc(O)c(O)c2)oc2c(OC3OC(CO)C(O)C(O)C3O)c(O)cc(O)c12 (stereo not drawn)"
class_assignment = "class 0"

[[record]]
compound = "CCC=CCC=CC=CC(CCCCCCCC(=O)O)OO (stereo not drawn)"
class_assignment = "class 1"

[[record]]
compound = "CC(C)=CCc1cc(C2CC(=O)c3c(O)cc(O)c(CC=C(C)C)c3O2)cc(O)c1O (stereo not drawn)"
class_assignment = "class 1"


====

# test-summary: Waters ACQUITY UPLC BEH C18, 100 × 2.1 mm, 1.7 µm, 40 °C, 0.3 to 0.4 mL/min, estimated dead time 0.63 min; A: water + 0.1% formic acid; B: methanol + 0.1% formic acid; gradient (min/%B) 0/0.5 0.1/0.5 10/80 10.1/99.5 12/99.5
# condition-description: stereoisomer not certain
recorded-metric: LC retention time

[[record]]
molecule = "C=CC12CN(C)C3CC14C(=Nc1ccccc14)C1CC2C3CO1 (configuration not stated)"
recorded_metric = "LC retention time"
assay_result = "3.58 min"

[[record]]
molecule = "COC(=O)C1CC23CCC[N+]4([O-])CCC5(c6ccccc6NC15CC2)C34 (configuration not stated)"
recorded_metric = "LC retention time"
assay_result = "4.18 min"

[[record]]
molecule = "O=c1cc(-c2ccc(O)cc2)oc2c(C3OC(CO)C(O)C(O)C3O)c(O)c(C3OCC(O)C(O)C3O)c(O)c12 (configuration not stated)"
recorded_metric = "LC retention time"
assay_result = "3.41 min"

[[record]]
molecule = "CC=C1CN2CCC34C(=C(C=O)C1CC23)Nc1c(O)cccc14 (configuration not stated)"
recorded_metric = "LC retention time"
assay_result = "3.38 min"

[[record]]
molecule = "CCCCCCCCC1OC1CCCCCCCC(=O)O (configuration not stated)"
recorded_metric = "LC retention time"
assay_result = "10.3 min"

[[record]]
molecule = "CC1OC(Oc2cc(O)c3c(=O)c(OC4OC(C)C(O)C(O)C4O)c(-c4ccc(O)c(O)c4)oc3c2)C(O)C(O)C1O (configuration not stated)"
recorded_metric = "LC retention time"
assay_result = "3.67 min"

[[record]]
molecule = "O=C(C=Cc1ccc(O)c(O)c1)OC1C(O)CC(O)(C(=O)O)CC1O (configuration not stated)"
recorded_metric = "LC retention time"
assay_result = "4.6 min"

[[record]]
molecule = "CC1OC(OC2C(O)COC(OC3C(C)OC(OC4C(OC(=O)C56CCC(C)(C)CC5C5=CCC7C8(C)CCC(OC9OC(CO)C(O)C(O)C9O)C(C)(CO)C8CCC7(C)C5(C)CC6O)OCC(O)C4O)C(O)C3O)C2O)C(O)C(O)C1O (configuration not stated)"
recorded_metric = "LC retention time"
assay_result = "5.79 min"

[[record]]
molecule = "COc1c(OC2OC(CO)C(O)C(O)C2O)cc2oc(-c3ccc(O)c(O)c3)c(O)c(=O)c2c1O (configuration not stated)"
recorded_metric = "LC retention time"
assay_result = "4.58 min"

[[record]]
molecule = "CS(=O)CCCCCCCCC(N)C(=O)O (configuration not stated)"
recorded_metric = "LC retention time"
assay_result = "2.74 min"

[[record]]
molecule = "CC1CNC2(OC3CC4C5CCC6CC(OC7OC(CO)C(OC8OC(CO)C(O)C(O)C8OC8OC(CO)C(O)C(O)C8O)C(O)C7O)CCC6(C)C5CCC4(C)C3C2C)C(O)C1 (configuration not stated)"
recorded_metric = "LC retention time"
assay_result = "4.24 min"

[[record]]
molecule = "COc1ccc(-c2coc3cc(O)cc(O)c3c2=O)cc1"
recorded_metric = "LC retention time"
assay_result = "7.63 min"

[[record]]
molecule = "CC(C)=CCc1cc(-c2coc3cc(O)c(CC=C(C)C)c(O)c3c2=O)cc(O)c1O"
recorded_metric = "LC retention time"
assay_result = "8.06 min"

[[record]]
molecule = "O=C1CC(c2ccc(O)cc2)Oc2cc(OC3OC(CO)C(O)C(O)C3O)cc(O)c21 (configuration not stated)"
recorded_metric = "LC retention time"
assay_result = "4.52 min"

[[record]]
molecule = "CC1OC(OC2C(OC3C(OC4CCC5(C)C(CCC6(C)C5CC=C5C7CC(C)(C)CC(O)C7(C)CCC56C)C4(C)CO)OC(C(=O)O)C(O)C3O)OC(CO)C(O)C2O)C(O)C(O)C1O (configuration not stated)"
recorded_metric = "LC retention time"
assay_result = "7.09 min"

[[record]]
molecule = "CCCCCCCCCCCCC(O)C(O)C(COC1OC(CO)C(O)C(O)C1O)NC(C)=O (configuration not stated)"
recorded_metric = "LC retention time"
assay_result = "4.55 min"

[[record]]
molecule = "NCCc1ccc(O)cc1"
recorded_metric = "LC retention time"
assay_result = "1.83 min"


Sourced from the RepoRT retention time repository
